target: PTPN2 (B16F10.4 cells) (Mus musculus, UniProt Q06180); construct: HiBiT; host or cells: B16F10.4; test: HiBiT Degradation B16F10.4 PTPN2; type: cell-based; settings: 24.0 hours
Sequence (Q06180 whole entry): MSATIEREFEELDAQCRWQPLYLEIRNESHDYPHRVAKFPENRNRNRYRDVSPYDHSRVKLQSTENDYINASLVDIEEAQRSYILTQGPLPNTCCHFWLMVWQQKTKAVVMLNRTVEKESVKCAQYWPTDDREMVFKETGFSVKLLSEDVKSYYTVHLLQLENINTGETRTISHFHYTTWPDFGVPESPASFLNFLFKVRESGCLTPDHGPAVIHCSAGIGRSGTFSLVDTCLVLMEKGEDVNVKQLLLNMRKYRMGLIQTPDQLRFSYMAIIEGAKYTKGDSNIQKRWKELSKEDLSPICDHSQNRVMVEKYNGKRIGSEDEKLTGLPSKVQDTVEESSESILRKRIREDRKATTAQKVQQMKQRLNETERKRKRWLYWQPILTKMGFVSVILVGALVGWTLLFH
Consider the following compounds and their measured DC50 readings.
endpointLabel: DC50

compound: O=C(O)COc1c(C(=O)O)sc(-c2cccc(NC3CCN(S(=O)(=O)Cc4ccc(F)c(NC(=O)C5CN(C(=O)CNc6cccc7c6CN(C6CCC(=O)NC6=O)C7=O)C5)c4)CC3)c2)c1Cl (stereo not drawn)
endpointValue: ≥ 1000 nM
--
compound: CC1(C)C[C@@H](Nc2cccc(-c3sc(C(=O)O)c(OCC(=O)O)c3Cl)c2)CCN1S(=O)(=O)Cc1cccc(NC(=O)CNc2ccc3c(c2)C(=O)N(C2CCC(=O)NC2=O)C3=O)c1 (stereo partly drawn)
endpointValue: 200 to 1000 nM
--
compound: CC1(C)C[C@@H](Nc2cccc(-c3sc(C(=O)O)c(OCC(=O)O)c3Cl)c2)CCN1S(=O)(=O)Cc1cccc(NC(=O)N2CCC(c3cnc4c(c3)c3ccccc3n4C3CCC(=O)NC3=O)CC2)c1 (stereo partly drawn)
endpointValue: 200 to 1000 nM
--
compound: CC1(C)C[C@@H](Nc2cccc(-c3sc(C(=O)O)c(OCC(=O)O)c3Cl)c2)CCN1S(=O)(=O)Cc1ccc(F)c(NC(=O)[C@H]2[C@@H]3CN(C(=O)CNc4cccc5c4CN(C4CCC(=O)NC4=O)C5=O)C[C@@H]32)c1 (stereo partly drawn)
endpointValue: 200 to 1000 nM
--
compound: CC1(C)C[C@H](Nc2cccc(-c3sc(C(=O)O)c(OCC(=O)O)c3Cl)c2)CCN1S(=O)(=O)Cc1cccc(NC(=O)CCn2cc(CNc3cccc4c3C(=O)N(C3CCC(=O)NC3=O)C4=O)nn2)c1 (stereo partly drawn)
endpointValue: ≥ 1000 nM
--
compound: CC1(C)C[C@@H](Nc2cccc(-c3sc(C(=O)O)c(OCC(=O)O)c3Cl)c2)CCN1S(=O)(=O)Cc1cccc(NC(=O)CCOCCOCCOCCCc2cccc3c2C(=O)N(C2CCC(=O)NC2=O)C3=O)c1 (stereo partly drawn)
endpointValue: 200 to 1000 nM
--
compound: CC1(C)C[C@H](Nc2cccc(-c3sc(C(=O)O)c(OCC(=O)O)c3Cl)c2)CCN1S(=O)(=O)Cc1cc(NC(=O)N2CCC(c3ccc4c5c(cccc35)C(=O)N4C3CCC(=O)NC3=O)CC2)ccc1F (stereo partly drawn)
endpointValue: < 50 nM
--
compound: Cn1c(=O)n(C2CCC(=O)NC2=O)c2ccc(C3CCN(C(=O)Nc4cccc(CS(=O)(=O)N5CC[C@H](Nc6cc(-c7sc(C(=O)O)c(OCC(=O)O)c7Cl)ccc6F)CC5(C)C)c4)CC3)cc21 (stereo partly drawn)
endpointValue: 50 to 200 nM
--
compound: CC1(C)C[C@H](Nc2cccc(-c3sc(C(=O)O)c(OCC(=O)O)c3Cl)c2)CCN1S(=O)(=O)Cc1cccc(NC(=O)N2CCC(c3ccc4c(c3)n(C3COC3)c(=O)n4C3CCC(=O)NC3=O)CC2)c1 (stereo partly drawn)
endpointValue: 50 to 200 nM
--
compound: CC1(C)C[C@H](Nc2cccc(-c3sc(C(=O)O)c(OCC(=O)O)c3Cl)c2)CCN1S(=O)(=O)Cc1cccc(NC(=O)N2CCC(c3ccc4c5c(cccc35)C(=O)N4C3CCC(=O)NC3=O)CC2)c1F (stereo partly drawn)
endpointValue: < 50 nM
--
compound: CC1(C)C[C@@H](Nc2cccc(-c3sc(C(=O)O)c(OCC(=O)O)c3Cl)c2F)CCN1S(=O)(=O)Cc1ccc(F)c(NC(=O)C2CN(C(=O)CNc3cccc4c3CN([C@@H]3CCC(=O)NC3=O)C4=O)C2)c1 (single isomer, unassigned) [Example 148a]
endpointValue: 200 to 1000 nM
--
compound: Cn1c(=O)n(C2CCC(=O)NC2=O)c2cccc(CCC(=O)Nc3cccc(CS(=O)(=O)N4CCC(Nc5cccc(-c6sc(C(=O)O)c(OCC(=O)O)c6Cl)c5)CC4)c3)c21 (stereo not drawn)
endpointValue: 200 to 1000 nM
--
compound: Cn1c(=O)n(C2CCC(=O)NC2=O)c2ccc(N3CC(OC(=O)Nc4cccc(CS(=O)(=O)N5CC[C@H](Nc6cccc(-c7sc(C(=O)O)c(OCC(=O)O)c7Cl)c6)CC5(C)C)c4)C3)cc21 (stereo partly drawn)
endpointValue: ≥ 1000 nM
--
compound: CC1(C)C[C@@H](Nc2cccc(-c3sc(C(=O)O)c(OCC(=O)O)c3Cl)c2)CCN1S(=O)(=O)Cc1cccc(NC(=O)N2CCC(c3ccc4c(c3)CCN4C3CCC(=O)NC3=O)CC2)c1 (stereo partly drawn)
endpointValue: 200 to 1000 nM
--
compound: CC1(C)C[C@@H](Nc2cccc(-c3sc(C(=O)O)c(OCC(=O)O)c3Cl)c2)CCN1S(=O)(=O)Cc1cccc(NC(=O)[C@H]2CC[C@H](C(=O)Nc3cccc4c3CN(C3CCC(=O)NC3=O)C4=O)CC2)c1 (stereo partly drawn)
endpointValue: 200 to 1000 nM
--
compound: CC1(C)C[C@@H](Nc2cccc(-c3sc(C(=O)O)c(OCC(=O)O)c3Cl)c2)CCN1S(=O)(=O)Cc1cccc(N2CCN(CCCc3ccc4c5c(cccc35)C(=O)N4C3CCC(=O)NC3=O)C2=O)c1 (stereo partly drawn)
endpointValue: 50 to 200 nM
--
compound: O=C(O)COc1c(C(=O)O)sc(-c2cccc(NC3CCN(S(=O)(=O)Cc4cccc(NC(=O)CNc5ccc6c(c5)CN(C5CCC(=O)NC5=O)C6=O)c4)CC3)c2)c1Cl (stereo not drawn)
endpointValue: 200 to 1000 nM
--
compound: Cn1c(=O)n(C2CCC(=O)NC2=O)c2ccc(C3CCN(C(=O)Nc4cccc(CS(=O)(=O)N5CC[C@@H](Oc6cccc(-c7sc(C(=O)O)c(OCC(=O)O)c7Cl)c6)CC5(C)C)c4)CC3)cc21 (stereo partly drawn)
endpointValue: 50 to 200 nM

---

Molecular target: PTPN2 (HiBIT-PTPN2 in 293T.109 cells) (Homo sapiens)
Construct: expressed in transfected cells; host or cells: 293T.109 (293T WT from ATCC)
Assay: HiBiT Degradation 293T.109 PTPN2 (Nano-Glo HiBiT Lytic Assay)
Type: cell-based
Conditions: 24.0 hours
Procedure: Dulbecco's modified Eagle medium (DMEM) without phenol red and fetal bovine serum (FBS) were purchased from Gibco (Grand Island, NY, USA). Nano-Glo® HiBIT Lytic Assay System was purchased from Promega (Madison, WI, USA). […] PTPN2 degradation was determined based on quantification of luminescent signal using Nano-Glo® HiBIT Lytic Assay kit. […] Luminescence was acquired on EnVision™ Multilabel Reader (PerkinElmer, Santa Clara, CA, USA).

compound: Cn1c(=O)n(C2CCC(=O)NC2=O)c2ccc(C3CCN(C(=O)Nc4cc(CS(=O)(=O)N5CC[C@H](Nc6cccc(-c7sc(C(=O)O)c(OCC(=O)O)c7Cl)c6)CC5(C)C)ccc4F)CC3)cc21 (stereo partly drawn)
DC50: 50 to 200 nM

compound: Cn1c(=O)n(C2CCC(=O)NC2=O)c2ccc(C3CN(C(=O)Nc4cccc(CS(=O)(=O)N5CC[C@H](Nc6cccc(-c7sc(C(=O)O)c(OCC(=O)O)c7Cl)c6)CC5(C)C)c4)C3)cc21 (stereo partly drawn)
DC50: 50 to 200 nM

compound: CC1(C)C[C@@H](Nc2cccc(-c3sc(C(=O)O)c(OCC(=O)O)c3Cl)c2)CCN1S(=O)(=O)Cc1cccc(NC(=O)CCOCCn2cc(CNc3cccc4c3C(=O)N(C3CCC(=O)NC3=O)C4=O)nn2)c1 (stereo partly drawn)
DC50: 200 to 1000 nM

---

# DC50 values compiled below
biological target: PTPN2 (HiBIT-PTPN2 in 293T.109 cells) (Homo sapiens, UniProt P17706); construct: expressed in transfected cells; host or cells: 293T.109 (293T WT from ATCC); assay: HiBiT Degradation 293T.109 PTPN2 (Nano-Glo HiBiT Lytic Assay); assay type: cell-based; details: 24.0 hours
Sequence (P17706 whole entry, species assumed): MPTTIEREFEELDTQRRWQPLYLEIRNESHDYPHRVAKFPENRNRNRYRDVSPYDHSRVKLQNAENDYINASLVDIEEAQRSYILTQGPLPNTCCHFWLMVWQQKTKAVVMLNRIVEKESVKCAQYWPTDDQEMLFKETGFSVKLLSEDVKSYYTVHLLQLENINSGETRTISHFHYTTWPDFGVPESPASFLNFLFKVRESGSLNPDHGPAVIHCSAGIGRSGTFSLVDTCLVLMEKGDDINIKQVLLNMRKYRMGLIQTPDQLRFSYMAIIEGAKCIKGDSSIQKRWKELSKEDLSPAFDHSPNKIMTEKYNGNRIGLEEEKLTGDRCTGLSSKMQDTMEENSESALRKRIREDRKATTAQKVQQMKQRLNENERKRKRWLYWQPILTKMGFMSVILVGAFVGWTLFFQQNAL
endpointLabel: DC50

compound: CC1(C)C[C@@H](Nc2cccc(-c3sc(C(=O)O)c(OCC(=O)O)c3Cl)c2)CCN1S(=O)(=O)Cc1cccc(NC(=O)COC2CN(C(=O)CNc3cccc4c3CN(C3CCC(=O)NC3=O)C4=O)C2)c1 (stereo partly drawn) [Example 92]
endpointValue: 50 to 200 nM

compound: Cn1c(=O)n(C2CCC(=O)NC2=O)c2ccc(N3CCC(N4CCN(c5cccc(CS(=O)(=O)N6CCC(Nc7cccc(-c8sc(C(=O)O)c(OCC(=O)O)c8Cl)c7)CC6)c5)C4=O)CC3)cc21 (stereo not drawn) [Example 142]
endpointValue: < 50 nM

compound: Cn1c(=O)n(C2CCC(=O)NC2=O)c2ccc(C3CCN(C(=O)Nc4cccc(CS(=O)(=O)N5CCC(Nc6cccc(-c7sc(C(=O)O)c(OCC(=O)O)c7Cl)c6F)CC5)c4)CC3)cc21 (stereo not drawn) [Example 123]
endpointValue: 50 to 200 nM

compound: Cn1c(=O)n(C2CCC(=O)NC2=O)c2ccc([C@@H]3CN(C(=O)Nc4cccc(CS(=O)(=O)N5CC[C@H](Nc6cccc(-c7sc(C(=O)O)c(OCC(=O)O)c7Cl)c6)CC5(C)C)c4)CC[C@H]3F)cc21 (stereo partly drawn) [Example 213]
endpointValue: ≥ 1000 nM

compound: CC1(C)C[C@@H](Nc2cccc(-c3sc(C(=O)O)c(OCC(=O)O)c3Cl)c2)CCN1S(=O)(=O)Cc1cccc(NC(=O)N2CCC(c3ccc4c(c3)n(C3CCOCC3)c(=O)n4C3CCC(=O)NC3=O)CC2)c1 (stereo partly drawn) [Example 159]
endpointValue: 200 to 1000 nM

compound: Cn1c(=O)n(C2CCC(=O)NC2=O)c2ccc(C3CCN(C(=O)Nc4cccc(CS(=O)(=O)N5CC[C@H](Nc6cccc(-c7sc(C(=O)O)c(OCC(=O)O)c7Cl)c6F)CC5(C)C)c4)CC3)cc21 (stereo partly drawn) [Example 134]
endpointValue: < 50 nM

compound: O=C(O)COc1c(C(=O)O)sc(-c2cccc(NC3CCN(S(=O)(=O)Cc4cccc(NC(=O)CNc5ccc6c(c5)C(=O)N(C5CCC(=O)NC5=O)C6=O)c4)CC3)c2)c1Cl (stereo not drawn) [Example 23]
endpointValue: 200 to 1000 nM

compound: CC1(C)C[C@@H](Oc2cccc(-c3sc(C(=O)O)c(OCC(=O)O)c3Cl)c2)CCN1S(=O)(=O)Cc1cccc(NC(=O)N2CCC(c3ccc4c5c(cccc35)C(=O)N4C3CCC(=O)NC3=O)CC2)c1 (stereo partly drawn) [Example 228]
endpointValue: 200 to 1000 nM

compound: O=C(O)COc1c(C(=O)O)sc(-c2cccc(NC3CCN(S(=O)(=O)Cc4cccc(NC(=O)CCOCCNC(=O)CNc5ccc6c(c5)C(=O)N(C5CCC(=O)NC5=O)C6=O)c4)CC3)c2)c1Cl (stereo not drawn) [Example 24]
endpointValue: 200 to 1000 nM

compound: CC(C)n1c(=O)n(C2CCC(=O)NC2=O)c2ccc(C3CCN(C(=O)Nc4cccc(CS(=O)(=O)N5CC[C@H](Nc6cccc(-c7sc(C(=O)O)c(OCC(=O)O)c7Cl)c6)CC5(C)C)c4)CC3)cc21 (stereo partly drawn) [Example 137]
endpointValue: 50 to 200 nM

compound: CC1(C)C[C@@H](Nc2cccc(-c3sc(C(=O)O)c(OCC(=O)O)c3Cl)c2)CCN1S(=O)(=O)Cc1cccc(NC(=O)CCN2CCC(Nc3cccc4c3CN(C3CCC(=O)NC3=O)C4=O)CC2)c1 (stereo partly drawn) [Example 46]
endpointValue: < 50 nM

compound: CC1(C)C[C@@H](Nc2cccc(-c3sc(C(=O)O)c(OCC(=O)O)c3Cl)c2)CCN1S(=O)(=O)Cc1cccc(NC(=O)C2CN(C(=O)CNc3cccc4c3CN([C@H]3CCC(=O)NC3=O)C4=O)C2)c1 (single isomer, unassigned) [Example 44b]
endpointValue: < 50 nM

compound: O=C(O)COc1c(C(=O)O)sc(-c2cccc(NC3CCN(S(=O)(=O)Cc4cccc(NC(=O)CCCCNC(=O)CNc5cccc6c5CN(C5CCC(=O)NC5=O)C6=O)c4)CC3)c2)c1Cl (stereo not drawn) [Example 22]
endpointValue: 200 to 1000 nM

compound: CC1(C)C[C@@H](Nc2cccc(-c3sc(C(=O)O)c(OCC(=O)O)c3Cl)c2)CCN1S(=O)(=O)Cc1cccc(NC(=O)N2CCC(c3ccc4c5c(cccc35)C(=O)N4C3CCC(=O)NC3=O)CC2)c1F (stereo partly drawn) [Example 128]
endpointValue: 50 to 200 nM

compound: Cn1c(=O)n(C2CCC(=O)NC2=O)c2cc(F)c(C3CCN(C(=O)Nc4cccc(CS(=O)(=O)N5CC[C@H](Nc6cccc(-c7sc(C(=O)O)c(OCC(=O)O)c7Cl)c6)CC5(C)C)c4)CC3)cc21 (stereo partly drawn) [Example 153]
endpointValue: 50 to 200 nM

compound: CC1(C)C[C@@H](Nc2cccc(-c3sc(C(=O)O)c(OCC(=O)O)c3Cl)c2)CCN1S(=O)(=O)Cc1cccc(NC(=O)N2CCC(Oc3ccc4c(c3)CN(C3CCC(=O)NC3=O)C4=O)CC2)c1 (stereo partly drawn) [Example 76]
endpointValue: 200 to 1000 nM

compound: O=C(O)COc1c(C(=O)O)sc(-c2cccc(NC3CCN(S(=O)(=O)Cc4cccc(NC(=O)CCn5cc(CNc6cccc7c6CN(C6CCC(=O)NC6=O)C7=O)cn5)c4)CC3)c2)c1Cl (stereo not drawn) [Example 38]
endpointValue: 200 to 1000 nM

compound: Cn1c(=O)n(C2CCC(=O)NC2=O)c2ccc([C@H]3CC[C@H](C(=O)Nc4cccc(CS(=O)(=O)N5CC[C@H](Nc6cccc(-c7sc(C(=O)O)c(OCC(=O)O)c7Cl)c6)CC5(C)C)c4)CC3)cc21 (stereo partly drawn) [Example 138]
endpointValue: < 50 nM

Data origin, for the record: patent US20250302815A1
